Each item that follows carries a reported MFI.
# Target Desc: T1, CD117 (c-Kit, stem cell factor receptor) on HEL or TF1 human erythroleukemia cells (human, UniProt P10721 26-976)
# T1 construct: whole, on cells
# T1 sequence (P10721 26-976): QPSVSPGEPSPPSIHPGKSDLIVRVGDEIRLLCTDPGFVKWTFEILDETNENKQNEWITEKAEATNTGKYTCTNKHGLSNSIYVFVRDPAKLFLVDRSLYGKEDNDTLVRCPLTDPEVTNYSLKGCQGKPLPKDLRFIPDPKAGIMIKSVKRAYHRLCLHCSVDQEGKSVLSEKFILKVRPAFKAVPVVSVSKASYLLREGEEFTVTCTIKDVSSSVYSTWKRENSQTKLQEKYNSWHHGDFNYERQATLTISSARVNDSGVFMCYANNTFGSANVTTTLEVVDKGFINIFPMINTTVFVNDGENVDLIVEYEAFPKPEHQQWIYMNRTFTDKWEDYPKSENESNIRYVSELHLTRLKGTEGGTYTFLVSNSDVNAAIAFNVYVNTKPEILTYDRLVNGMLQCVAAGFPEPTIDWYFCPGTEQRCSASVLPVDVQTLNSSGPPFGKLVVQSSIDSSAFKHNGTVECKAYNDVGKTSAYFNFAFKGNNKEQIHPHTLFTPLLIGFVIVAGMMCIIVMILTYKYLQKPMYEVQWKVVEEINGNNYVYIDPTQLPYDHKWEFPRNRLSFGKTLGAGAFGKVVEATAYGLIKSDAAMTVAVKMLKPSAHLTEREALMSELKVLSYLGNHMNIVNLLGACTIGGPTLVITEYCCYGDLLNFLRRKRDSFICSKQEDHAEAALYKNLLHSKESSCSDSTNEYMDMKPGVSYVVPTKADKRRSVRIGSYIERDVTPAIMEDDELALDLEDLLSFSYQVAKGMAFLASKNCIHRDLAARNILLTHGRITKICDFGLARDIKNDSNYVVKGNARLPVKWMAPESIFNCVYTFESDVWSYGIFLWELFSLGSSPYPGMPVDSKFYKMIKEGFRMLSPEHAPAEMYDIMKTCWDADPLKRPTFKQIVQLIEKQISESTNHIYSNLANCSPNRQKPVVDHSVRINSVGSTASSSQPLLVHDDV
# Method Description: flow cytometry on HEL cells; 10 µl/2.10^5 cells
Give the figure by itself; no unit, no explanation.

- ch36-05 chimeric monoclonal antibody (antibody, human IgG1, kappa, V domains shown, Murine VH + human IgG1 Fc; murine VL + human Kappa; also called chR036-05; chR036.05) VH: QVQLQQSGAELVKPGAPVKLSCKASGYTFTRYWMNWVKQRPGRGLEWIGRIDPSDSEIHYNQNFKDKATLTVDKSSSTAYIQLSSLTSEDSAVYYCARDYGSDYYAMDYWGQGTSVTVSS VL: QIVLTQSPAIMSASLGEEITLTCSASSSVSYMHWYQQKSGTSPKLLIYSTSNLTSGVPSRFSGSGSGTFYSLTISSVEAEDAADYYCHQWSSYPFGGGTKLEIKR: 262
- humanized antibody 36-5 Hz128 (antibody, human IgG1, V domains shown, The variable regions were cloned into vector p3U containing the human IgG1 constant region; also called H-36.5Hz31 + L-36.5Hz31) VH: QVQLVQSGAEVKKPGASVKVSCKASGYTFTSYWMNWVRQAPGQGLEWIGRIDPSDSEIHYNQKFKGRVTMTVDTSTSTAYMELSSLRSEDTAVYYCARDYGSDYYAMDYWGQGTLVTVSS VL: QIVLTQSPAFQSVTPGEKVTITCSASQSVSYMHWYQQKSGTSPKLLIYSTSNLTSGVPSRFSGSGSGTDYTLTISSLEAEDAATYYCHQWSSYPFGGGTKVEIK: 250
- humanized antibody 36-5 Hz114 (antibody, human IgG1, V domains shown, The variable regions were cloned into expression vector p3U containing the human IgG1 constant region; also called H-36.5Hz27 + L-36.5Hz31) VH: QVQLVQSGAEVKKPGASVKVSCKASGYTFTSYWMNWVRQAPGQGLEWMGRIDPSDSEIHYNQKFKDKATLTVDKSTSTAYMELSSLRSEDTAVYYCARDYGSDYYAMDYWGQGTLVTVSS VL: QIVLTQSPAFQSVTPGEKVTITCSASQSVSYMHWYQQKSGTSPKLLIYSTSNLTSGVPSRFSGSGSGTDYTLTISSLEAEDAATYYCHQWSSYPFGGGTKVEIK: 136

Consider the record given below.
*Q* Item under review: humanized antibody 36-5 Hz121 (antibody, human IgG1, V domains shown, The variable regions were cloned into vector p3U containing the human IgG1 constant region; also called H-36.5Hz30 + L-36.5Hz31) VH: QVQLVQSGAEVKKPGASVKVSCKASGYTFTSYWMNWVRQAPGQGLEWMGRIDPSDSEIHYNQKFKGRVTMTVDTSTSTAYMELSSLRSEDTAVYYCARDYGSDYYAMDYWGQGTLVTVSS VL: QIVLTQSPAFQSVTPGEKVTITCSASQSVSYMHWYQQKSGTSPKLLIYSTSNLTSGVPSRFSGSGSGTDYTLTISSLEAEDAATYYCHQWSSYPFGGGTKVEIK . Reported MFI?
*A* 236
